# target entity: β-catenin/BCL9 PPI (Homo sapiens, UniProt P35222)
# Construct: Full-length β-catenin (residues 1-781) were cloned into a pET-28b vector; made in house; host or cells: E. coli BL21 DE3 (β-catenin); BCL9 peptide synthesized by InnoPep Inc
# Sequence (P35222 1-781): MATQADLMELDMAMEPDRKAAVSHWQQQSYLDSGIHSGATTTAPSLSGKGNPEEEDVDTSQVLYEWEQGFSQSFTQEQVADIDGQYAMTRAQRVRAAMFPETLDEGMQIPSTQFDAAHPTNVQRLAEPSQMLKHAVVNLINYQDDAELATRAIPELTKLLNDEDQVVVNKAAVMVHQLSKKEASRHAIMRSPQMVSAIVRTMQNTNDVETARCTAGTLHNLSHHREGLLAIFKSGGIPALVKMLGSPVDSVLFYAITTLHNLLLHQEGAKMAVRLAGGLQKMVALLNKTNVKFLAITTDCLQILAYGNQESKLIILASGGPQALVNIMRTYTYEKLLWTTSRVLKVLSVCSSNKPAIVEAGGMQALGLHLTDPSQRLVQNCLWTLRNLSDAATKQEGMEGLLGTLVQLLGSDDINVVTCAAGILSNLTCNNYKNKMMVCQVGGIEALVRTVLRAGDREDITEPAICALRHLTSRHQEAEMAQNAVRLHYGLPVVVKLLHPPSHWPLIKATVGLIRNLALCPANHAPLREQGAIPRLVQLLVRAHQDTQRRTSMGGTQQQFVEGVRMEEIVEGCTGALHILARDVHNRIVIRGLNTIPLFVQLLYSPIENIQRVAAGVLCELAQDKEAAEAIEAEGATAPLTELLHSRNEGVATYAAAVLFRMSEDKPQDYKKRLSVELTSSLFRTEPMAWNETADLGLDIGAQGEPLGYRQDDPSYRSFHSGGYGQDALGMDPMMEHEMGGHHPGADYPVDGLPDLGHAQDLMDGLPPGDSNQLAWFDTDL
# procedure text: AlphaScreen competitive inhibition assay of the β-catenin/BCL9 PPI
# Assay type: binding
# applied conditions: Table 3, inhibitors 27-43; read-out: Ki
pKi: −log10 of the molar value.
assay readout: pKi

get_value(item= `CC(C)(Oc1cccc(N2CCC[C@@H](C(=O)N(Cc3ccc(-c4ccccn4)cc3)C3CC3)C2)c1)C(=O)N1CCNCC1` , readout=pKi) returns > 4.05

The measured pKi associated with `CC(C)(Oc1cccc(N2CCC[C@@H](C(=O)N(Cc3ccc(-c4ccccc4)cc3)C3CC3)C2)c1)C(=O)N1CCNCC1` reads > 5.30

Per the record, `Cc1n[nH]cc1-c1ccc(CN(C(=O)[C@@H]2CCCN(c3cccc(OC(C)(C)C(=O)N4CCNCC4)c3)C2)C2CC2)cc1` has pKi of ≥ 4.30

response.value for `Cc1noc(C)c1-c1ccc(CN(C(=O)[C@@H]2CCCN(c3cccc(OC(C)(C)C(=O)N4CCNCC4)c3)C2)C2CC2)cc1` (field: pKi) = > 4.52
